- methodNotes: protein stability index of a GFP-peptide fusion (yeast GPS) (PSI 1-4); higher = more stable; sorted into four equal gates, so the index is relative within each strain
- conditionDescription: doa10∆
Catalogue of sequences with associated protein stability index

• RERRIHVTQEDFELAVG [RPT6] = 2.38
• SDNSEEEEVDIDMDKLN [RRP43] = 3.25
• NNPKVKTSKRTKRWYKN [RPS11A] = 3.36

Consider the sequence AFEAELSNIPLLLITHH [ARP9] and give its measured protein stability index. 1.49

For VQDCRYSLASVTLKGAK [POP1] then? 2.35

For ELKDLETQVEVEKNEIG [NNF1] then? 3.05

---

- methodNotes: protein stability index of a GFP-peptide fusion (yeast GPS) (PSI 1-4); higher = more stable; sorted into four equal gates, so the index is relative within each strain
- conditionDescription: ubr1∆
measurementLabel: protein stability index
Enter the number alone.

For orientation, consider the following solved cases.
- AVALAASDLVLIVIDVV [SNU114]: 2.13
- RPLKLERGFACIPLVGI [FAS1]: 1.69
- LKKNNYNSFPHSNLEKI [SIR4]: 3.17

Consider the sequence LIEFQPSQGVHYKVPTD [MED6] and give its measured protein stability index. 2.93

For LKQDLKKISSFKSLIDE [YGL172W/NUP49] then? 3.06

For EFYNEMHRPVHFLQFSE [PRP8] then? 2.33

For MASYMLNSFAFELCSLG [YJR042W/NUP85] then? 1.5

For NKTKAVDNTVPSTTLFN [YOR098C/NUP1] then? 3.15

For TFAKSKNYSRPSTAIHT [SIR4] then? 2.15

For NENRNTGAGVDVNTNAN [SNF11] then? 3.36

For FKSPIDNSESHPFIPLL [RRP6] then? 1.82

For LKVLSEHLDCMNFISKE [PCI8] then? 3.03

For ISSPIVANSPNKRLDVI [YDL088C/ASM4] then? 2.85

For QGPIVADKNCAKLHRIS [PUP1] then? 2.64

For KSYASLLAQLNGTVNNN [RPT3] then? 2.55

For VKSLRQGKSKLIIIAAN [RPL30] then? 1.96

For EGTRNRFSYSPPKEGNY [YMR129W/POM152] then? 3.13

For TAQEINFKMLVLLATWN [IRR1] then? 1.83

For SETPLQKTVNLKNIMKV [RPN4] then? 2.48

For LEEHKNHLDELQKKFVT [SMC1] then? 2.91

---

- methodNotes: protein stability index of a GFP-peptide fusion (yeast GPS) (PSI 1-4); higher = more stable; sorted into four equal gates, so the index is relative within each strain
- conditionDescription: doa10∆
Dear colleague, classification is by protein stability index, with ranges listed here: label 0 = under 2, label 1 = from 2 up to 3, label 2 = 3 and over

Use these answered entries as a reference point.
* PPGYEIEELDNPMVPSS [PRP8] | label 1
* GSEILGDLKLQVLLDEE [RPO21] | label 2
* KSSILTVLQKNSLLLDS [YML103C/NUP188] | label 0
* NRQVMHKMGVERSSKRL [SIR3] | label 2
* NTKVPVDIVNQWFLQYQ [YML103C/NUP188] | label 0

Record IGWCKEDPKRRADTMDF [YJL039C/NUP192] — which class? label 2

For LWGPHGLNSDAEEVRNF [ECM29] then? label 2

For IGARSQGAKTYLERTLD [PRE5] then? label 2

For DRMAKYLHIRDKILQLN [PGD1] then? label 1

For GVDDQILATNSLRILAK [YJL039C/NUP192] then? label 2

For SLFTYFREAIVATEPLL [PRP8] then? label 0

For VITPHFITNVQSISQNS [SWI1] then? label 0

For DLVHIKDSLDNTFVTRL [RPS4A] then? label 1

For FREWQYFKLSITSFDQD [POP8] then? label 0

For LLSEHDDHNGEVWSVSW [YGL100W/SEH1] then? label 1

For PDAQNELPKFILSDSPL [DIS3] then? label 1

For RADIVRNIILEARFDVL [ISW2] then? label 1

---

- methodNotes: protein stability index of a GFP-peptide fusion (yeast GPS) (PSI 1-4); higher = more stable; sorted into four equal gates, so the index is relative within each strain
- conditionDescription: doa10∆
Catalogue of sequences with associated protein stability index
Enter the number alone.

- PDKDYLLSIPISCPLIG [FAS1]: 1.28

Consider the sequence TKSKNKTLIGLQGIVIW [POP4] and give its measured protein stability index. 2.93

For TPPAIEHKPVSPDKIGT [SSN2] then? 3.03

For APTGSGKTNIALLTVLK [BRR2] then? 2.88

For PLQSMDIEQLEYSRDCF [RPB3] then? 3.16

For PRMIELMEFLCVVSTDS [ECM29] then? 2.04

---

- methodNotes: protein stability index of a GFP-peptide fusion (yeast GPS) (PSI 1-4); higher = more stable; sorted into four equal gates, so the index is relative within each strain
- conditionDescription: ubr1∆
Catalogue of sequences with associated protein stability index
Enter the number alone.

• ARDIISHNFQNAIFQME [PCI8] = 2.92

Consider the sequence NSNTTNQNSSTGAGAFG [YJL041W/NSP1] and give its measured protein stability index. 2.96

For TLRKELEQIQVQLKDAN [YIL149C/MLP2] then? 2.24

---

- methodNotes: protein stability index of a GFP-peptide fusion (yeast GPS) (PSI 1-4); higher = more stable; sorted into four equal gates, so the index is relative within each strain
- conditionDescription: ubr1∆
measurementLabel: protein stability index
Enter the number alone.

For orientation, consider the following solved cases.
- TCSCCKKTVAGGAYTVS [RPL43A]: 2.15
- RIHTNDNDIMNLGSRTK [SSN3]: 3.03
- SNHNNLNLNNSELQPQN [SNF2]: 2.81
- SLPSKLTKYKEMERIVK [SRP68]: 2.86
- SMGTMICGYTRKEGPTI [PRE2]: 2.71

Consider the sequence IMNLITNEPCGAQFSRS [RPN4] and give its measured protein stability index. 2.96

For TIRYLMQKQHEMKTQAA [SNF6] then? 2.9

For LKYLDDLKAQFQELDSK [RPN9] then? 3.2

---

- methodNotes: protein stability index of a GFP-peptide fusion (yeast GPS) (PSI 1-4); higher = more stable; sorted into four equal gates, so the index is relative within each strain
- conditionDescription: san1∆
Catalogue of sequences with associated protein stability index
Enter the number alone.

For orientation, consider the following solved cases.
* KKKRFEIKKWTAVAFWS [HRT1] | 1.55
* LESDFVTGASQFQRLAP [PRE2] | 3.17

Consider the sequence SREVLRYEEFADKVKLG [RPC40] and give its measured protein stability index. 3.17

---

- methodNotes: protein stability index of a GFP-peptide fusion (yeast GPS) (PSI 1-4); higher = more stable; sorted into four equal gates, so the index is relative within each strain
- conditionDescription: pdr5∆
measurementLabel: protein stability index
Enter the number alone.

For orientation, consider the following solved cases.
* GINSKSGKPFIAGFDLI [PUP3] | 3.29
* SPVQIAFNRFMAESLVD [SSN8] | 1.97
* EPIRFLPNQFPLKIHRT [SWI1] | 1.81

Consider the sequence MLKYRRLFIGDQNNKKM [SNF2] and give its measured protein stability index. 2.82

For REDTPLSQNESTRASTV [ISW2] then? 3.11

---

- methodNotes: protein stability index of a GFP-peptide fusion (yeast GPS) (PSI 1-4); higher = more stable; sorted into four equal gates, so the index is relative within each strain
- conditionDescription: pdr5∆
measurementLabel: protein stability index
Enter the number alone.

For orientation, consider the following solved cases.
• NASDALKGRVVEVCLAD [RPS1B] = 3.33
• FKQIKSADCELLGIDAT [RPO31] = 1.8
• HANAAAVYFADTSGLKI [SIN4] = 2.56
• MSAVPSVQTFGKKKSAT [RPS16A] = 1.32
• FGVPNSSKNETSKPVFS [YLR335W/NUP2] = 2.97
• KFNKSKAKFTSLAVRSL [YCS4] = 2.01

Let's switch to this sequence now.
Consider the sequence KRSDLTGANSIYSVEKK [UBP6] and give its measured protein stability index. 2.8

---

- methodNotes: protein stability index of a GFP-peptide fusion (yeast GPS) (PSI 1-4); higher = more stable; sorted into four equal gates, so the index is relative within each strain
- conditionDescription: san1∆
Catalogue of sequences with associated protein stability index
Enter the number alone.

For orientation, consider the following solved cases.
* LRDTFIELDQVLNMLYW [RPO21] | 2.4
* CKLFLADVFTDDDLFET [YCG1] | 3.03
* QLSNGIVVATEHNPSAH [COR1] | 3.2
* FLSLLNLATKGMVKLNE [REC8] | 1.6
* YQSSVQEPFLNSSNYAE [PRP8] | 2.78
* TNILISPLNTTTKILGD [YML103C/NUP188] | 2.04
* ALENDVATNIVNEDPIF [YML103C/NUP188] | 3.04
* QKTRVKLLFDHDELDMN [ESC2] | 3.02

Consider the sequence RDCIDISIFSTPGSVSL [PRP8] and give its measured protein stability index. 2.45

For EAKDAIIELENINAKME [YIL149C/MLP2] then? 3.02

For FPSIPLPINGPITNKER [RPC31] then? 2.17
